# TGT: Delta-type opioid receptor (Mus musculus) (UniProt P32300)
# Sequence (P32300 whole entry): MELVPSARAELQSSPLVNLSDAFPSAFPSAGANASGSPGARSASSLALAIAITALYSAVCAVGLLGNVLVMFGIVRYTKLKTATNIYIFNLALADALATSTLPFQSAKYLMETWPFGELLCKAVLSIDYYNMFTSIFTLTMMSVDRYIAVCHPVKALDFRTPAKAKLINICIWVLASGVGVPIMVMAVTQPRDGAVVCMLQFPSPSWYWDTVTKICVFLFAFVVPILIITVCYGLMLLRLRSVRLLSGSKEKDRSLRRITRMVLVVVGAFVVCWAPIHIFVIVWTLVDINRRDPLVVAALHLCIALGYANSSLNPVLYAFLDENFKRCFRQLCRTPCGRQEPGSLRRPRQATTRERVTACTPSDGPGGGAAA
# METHOD NOTES: Agonist activity at delta opioid receptor in mouse vas deferens assessed as inhibition of electrically-stimulated muscle contraction at 10000 nM
# Assay type: functional, tissue-based
# Parameters: scale not given: the % may be the effect or the level left
READOUT: Activity

INSERT INTO assay_data (structure_notation, tgt, value_reported) VALUES
  ('Cc1cc(C)cc(C[C@H](NC(=O)[C@@H]2CCCN2C(=O)[C@@H](N)Cc2ccc(O)cc2)C(=O)N[C@@H](Cc2ccccc2)C(N)=O)c1', 'Delta-type opioid receptor (Mus musculus) (UniProt P32300)', '> 8%'),
  ('Cc1cc(C)c(C[C@H](NC(=O)[C@@H]2CCCN2C(=O)[C@@H](N)Cc2c(C)cc(O)cc2C)C(=O)N[C@@H](Cc2ccccc2)C(N)=O)c(C)c1', 'Delta-type opioid receptor (Mus musculus) (UniProt P32300)', '> 22.2%');

Switching to the query record.
Query (compound): Cc1cc(O)ccc1C[C@H](NC(=O)[C@@H]1CCCN1C(=O)[C@@H](N)Cc1c(C)cc(O)cc1C)C(=O)N[C@@H](Cc1ccccc1)C(N)=O ; field requested: Activity
< 1%

###

Each entry below carries its reported Ki.
# TGT: UniProt P41144
# Sequence (P41144 whole entry): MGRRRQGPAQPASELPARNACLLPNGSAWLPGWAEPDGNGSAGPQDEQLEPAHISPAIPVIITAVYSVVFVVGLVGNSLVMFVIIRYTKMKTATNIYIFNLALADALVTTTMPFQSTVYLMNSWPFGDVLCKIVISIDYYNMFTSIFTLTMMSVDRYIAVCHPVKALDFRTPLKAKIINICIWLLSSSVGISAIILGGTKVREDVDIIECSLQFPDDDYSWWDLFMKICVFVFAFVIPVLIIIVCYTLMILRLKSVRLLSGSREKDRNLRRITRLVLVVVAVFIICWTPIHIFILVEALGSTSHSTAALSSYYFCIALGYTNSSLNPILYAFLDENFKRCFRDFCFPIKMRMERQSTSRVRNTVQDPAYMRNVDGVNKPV
Field note: include the unit after the figure.

Tell me the measured Ki of Cc1cc(C)cc(C[C@H](NC(=O)[C@@H]2CCCN2C(=O)[C@@H](N)Cc2c(C)cc(O)cc2C)C(=O)N[C@@H](Cc2ccccc2)C(N)=O)c1 , please.
830 nM

Please do the same for CCc1cccc(C)c1C[C@H](NC(=O)[C@@H]1CCCN1C(=O)[C@@H](N)Cc1c(C)cc(O)cc1C)C(=O)N[C@@H](Cc1ccccc1)C(N)=O as well.
278 nM

Also need Cc1cc(C)c(C[C@H](NC(=O)[C@@H]2CCCN2C(=O)[C@@H](N)Cc2c(C)cc(O)cc2C)C(=O)N[C@@H](Cc2ccccc2)C(N)=O)c(C)c1 , thanks.
172 nM

###

# TGT: UniProtKB P41144
Where a SMILES comes first, the peptide text is derived from it. [ ]: non-standard residue; d: D form. Dmt = Cc1cc(O)cc(C)c1C[C@H](N)C(=O)O
Below: a set of entries, each annotated with reported pKi.
Here pKi is given on a logarithmic scale as minus log10 of the concentration in mol/L.

Previously resolved entries follow.
INSERT INTO results (compound, value_reported) VALUES
  ('Cc1cc(O)cc(C)c1C[C@H](N)C(=O)N1CCC[C@H]1C(=O)N[C@@H](Cc1ccccc1)C(=O)N[C@@H](Cc1ccccc1)C(N)=O', 6.31),
  ('Cc1cc(O)cc(C)c1C[C@H](N)C(=O)N1CCC[C@H]1C(=O)N[C@@H](Cc1c(C)cccc1C(C)C)C(=O)N[C@@H](Cc1ccccc1)C(N)=O', 6.69);

Here is another compound to look at.
Suppose we examine the compound Cc1cc(O)cc(C)c1C[C@H](NC(=O)[C@@H]1CCCN1C(=O)[C@@H](N)Cc1c(C)cc(O)cc1C)C(=O)N[C@@H](Cc1ccccc1)C(N)=O (H-[Dmt]P[Dmt]F-NH2) ; what pKi value has been reported?
6.00

###

# TGT: Opioid receptors; mu & delta (Rattus norvegicus) (UniProt P33533+P33535)
# Sequence (P33533 whole entry, looked up): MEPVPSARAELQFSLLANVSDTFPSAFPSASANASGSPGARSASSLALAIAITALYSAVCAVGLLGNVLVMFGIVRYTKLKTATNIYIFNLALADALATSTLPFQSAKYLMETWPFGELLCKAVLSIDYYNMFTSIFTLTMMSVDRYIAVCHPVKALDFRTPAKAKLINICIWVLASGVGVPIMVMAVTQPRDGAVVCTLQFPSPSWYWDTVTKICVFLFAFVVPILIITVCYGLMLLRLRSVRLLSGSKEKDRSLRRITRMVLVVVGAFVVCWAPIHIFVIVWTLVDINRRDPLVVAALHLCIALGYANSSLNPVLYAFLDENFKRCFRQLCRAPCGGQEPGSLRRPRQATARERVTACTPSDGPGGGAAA
# Sequence (P33535 whole entry, looked up): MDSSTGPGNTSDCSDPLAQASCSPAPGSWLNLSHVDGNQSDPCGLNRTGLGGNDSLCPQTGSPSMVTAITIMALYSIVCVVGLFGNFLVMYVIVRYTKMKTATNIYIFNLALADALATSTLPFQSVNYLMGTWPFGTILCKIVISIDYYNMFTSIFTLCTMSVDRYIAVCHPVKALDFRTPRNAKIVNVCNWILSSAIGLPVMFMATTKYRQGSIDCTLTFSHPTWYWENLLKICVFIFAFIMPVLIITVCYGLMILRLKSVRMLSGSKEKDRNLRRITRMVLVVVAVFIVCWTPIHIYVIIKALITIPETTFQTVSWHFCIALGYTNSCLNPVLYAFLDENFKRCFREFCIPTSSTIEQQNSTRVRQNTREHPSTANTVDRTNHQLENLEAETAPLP
# METHOD NOTES: Selectivity for mu opioid receptor over delta opiod receptor in Sprague-Dawley rat brain P2 synaptosome membrane
# Assay type: tissue-based
Below, each of the compounds is paired with its reported Ratio Ki value.
Enter a number only.

// lookup Ratio Ki for Cc1cc(C)cc(C[C@H](NC(=O)[C@@H]2CCCN2C(=O)[C@@H](N)Cc2c(C)cc(O)cc2C)C(=O)N[C@@H](Cc2ccccc2)C(N)=O)c1
105

Now consider Cc1cc(O)cc(C)c1C[C@H](N)C(=O)N1CCC[C@H]1C(=O)N[C@@H](Cc1c(C)cccc1C(C)C)C(=O)N[C@@H](Cc1ccccc1)C(N)=O .
14

Another: Cc1cccc(C)c1C[C@H](NC(=O)[C@@H]1CCCN1C(=O)[C@@H](N)Cc1ccc(O)cc1)C(=O)N[C@@H](Cc1ccccc1)C(N)=O
32700

Can you check Cc1cc(O)ccc1C[C@H](NC(=O)[C@@H]1CCCN1C(=O)[C@@H](N)Cc1c(C)cc(O)cc1C)C(=O)N[C@@H](Cc1ccccc1)C(N)=O next?
878

Try Cc1cc(C)c(C[C@H](NC(=O)[C@@H]2CCCN2C(=O)[C@@H](N)Cc2ccc(O)cc2)C(=O)N[C@@H](Cc2ccccc2)C(N)=O)c(C)c1 next.
3090

Request: Cc1cc(C)c(C[C@H](NC(=O)[C@@H]2CCCN2C(=O)[C@@H](N)Cc2c(C)cc(O)cc2C)C(=O)N[C@@H](Cc2ccccc2)C(N)=O)c(C)c1
10

Then this compound: Cc1cccc(C)c1C[C@H](NC(=O)[C@@H]1CCCN1C(=O)[C@@H](N)Cc1c(C)cc(O)cc1C)C(=O)N[C@@H](Cc1ccccc1)C(N)=O
33

Entry to check: Cc1ccccc1C[C@H](NC(=O)[C@@H]1CCCN1C(=O)[C@@H](N)Cc1ccc(O)cc1)C(=O)N[C@@H](Cc1ccccc1)C(N)=O
7880

Source: ChEMBL document CHEMBL1143681
